Target: M-phase inducer phosphatase 2 (Homo sapiens, UniProt P30305)
Sequence (P30305 whole entry, the tested form may be a part): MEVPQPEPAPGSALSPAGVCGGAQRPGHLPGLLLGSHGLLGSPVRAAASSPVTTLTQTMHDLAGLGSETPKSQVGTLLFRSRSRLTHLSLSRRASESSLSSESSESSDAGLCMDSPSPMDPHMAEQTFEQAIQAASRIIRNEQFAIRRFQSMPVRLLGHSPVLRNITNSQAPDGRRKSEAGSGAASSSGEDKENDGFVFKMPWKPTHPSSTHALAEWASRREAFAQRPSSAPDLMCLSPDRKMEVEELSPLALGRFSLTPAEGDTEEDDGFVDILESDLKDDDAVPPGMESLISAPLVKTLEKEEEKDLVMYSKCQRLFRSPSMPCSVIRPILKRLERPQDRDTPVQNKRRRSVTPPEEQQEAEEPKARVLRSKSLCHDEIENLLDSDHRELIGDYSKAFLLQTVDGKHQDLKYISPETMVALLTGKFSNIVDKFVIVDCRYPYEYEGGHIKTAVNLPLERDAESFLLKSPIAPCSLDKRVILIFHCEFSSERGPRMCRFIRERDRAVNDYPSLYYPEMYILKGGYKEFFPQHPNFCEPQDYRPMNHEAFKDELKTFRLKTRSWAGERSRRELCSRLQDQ
Assay: Inhibition of recombinant human GST-tagged truncated CDC25B expressed in bacterial expression system using 3-O-methylfluorescein phosphate as substrate after 2 hrs by fluorimetric analysis
observed.property: IC50 (µM)
Provide only the numeric value, understood in µM.

Exercise: Which measured IC50 belongs to O=C1C=CC(=O)c2c1ccc1c2c(=O)oc2ccccc21 , tested on M-phase inducer phosphatase 2 (Homo sapiens, UniProt P30305)?
Key: 14.4

---

Molecular target: UniProt:P30307
Sequence (P30307 whole entry): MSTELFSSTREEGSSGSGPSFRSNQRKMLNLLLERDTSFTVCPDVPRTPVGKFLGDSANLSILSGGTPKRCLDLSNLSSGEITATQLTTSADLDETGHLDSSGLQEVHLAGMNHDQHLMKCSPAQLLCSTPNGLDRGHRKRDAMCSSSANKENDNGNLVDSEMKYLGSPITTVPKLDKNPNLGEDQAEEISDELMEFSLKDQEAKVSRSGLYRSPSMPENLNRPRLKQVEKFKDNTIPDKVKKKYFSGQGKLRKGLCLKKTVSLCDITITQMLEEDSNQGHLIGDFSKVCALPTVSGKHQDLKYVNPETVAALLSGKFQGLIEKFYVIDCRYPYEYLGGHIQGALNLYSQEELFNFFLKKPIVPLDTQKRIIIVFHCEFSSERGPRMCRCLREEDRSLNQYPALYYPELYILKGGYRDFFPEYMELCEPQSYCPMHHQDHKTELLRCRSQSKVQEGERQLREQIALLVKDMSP
Assay: Inhibition of recombinant human full length GST-tagged CDC25C expressed in Escherichia coli BL21-DE3 pLysS using 3-O-methylfluorescein phosphate as substrate after 2 hrs by fluorimetric analysis
I'd appreciate it if you marked entries Y when IC50 is lower than 1000 nM and N when it is not.

Observe how each entry below is paired with its result.
{"cpd.smiles": "O=C1C=CC(=O)c2c1ccc1c2c(=O)oc2cc(O)ccc21", "class.label": "Y"}
{"cpd.smiles": "O=C1C=CC(=O)c2c1ccc1c2c(=O)oc2cc(OCc3ccccc3)ccc21", "class.label": "N"}

Exercise: For this compound, is IC50 lower than 1000 nM? O=C1C=CC(=O)c2c1ccc1c2c(=O)oc2cc(Cl)ccc21
Key: Y

Exercise: Now this one: O=C1C=CC(=O)c2c1ccc1c2c(=O)oc2ccccc21
Key: N

Exercise: Now this one: O=C1C=CC(=O)c2c1ccc1c2c(=O)[nH]c2cc(Cl)ccc21
Key: N

Exercise: Now this one: O=C1C=CC(=O)c2c1ccc1c2c(=O)[nH]c2ccc(F)cc21
Key: N

Exercise: Now this one: O=C1C=CC(=O)c2c1ccc1c2c(=O)[nH]c2c3ccccc3ccc12
Key: N

Exercise: Now this one: Cn1c(=O)c2c3c(ccc2c2ccccc21)C(=O)C=CC3=O
Key: N

Exercise: Now this one: O=C1C=CC(=O)c2c1ccc1c2c(=O)oc2cc(F)ccc21
Key: Y

Exercise: Now this one: O=C1C=CC(=O)c2c1ccc1c2c(=O)[nH]c2ccccc21
Key: N

Exercise: Now this one: O=C1C=CC(=O)c2c1ccc1c2c(=O)[nH]c2ccc(Cl)cc21
Key: N

Exercise: Now this one: O=C1C=CC(=O)c2c1ccc1c2c(=O)oc2ccc(F)cc21
Key: Y

Exercise: Now this one: O=C1C=CC(=O)c2c1ccc1c2c(=O)oc2ccc(Cl)cc21
Key: N

---

Tested on: MCF7
Assay: Cytotoxicity against human MCF7 cells assessed as reduction in cell viability after 72 hrs by MTT assay
Format: functional, cell-based
Settings: MCF7, 72 h
observed.property: IC50 (µM)
Provide only the numeric value, understood in µM.

For orientation, consider the following solved cases.
{"cpd.smiles": "O=C1C=CC(=O)c2c1ccc1c2c(=O)oc2cc(F)ccc21", "unit.spec": "µM", "endpoint.value": 11}
{"cpd.smiles": "O=C1C=CC(=O)c2c1ccc1c2c(=O)[nH]c2cc(Cl)ccc21", "unit.spec": "µM", "endpoint.value": 2}
{"cpd.smiles": "COc1ccc2c(c1)oc(=O)c1c3c(ccc12)C(=O)C=CC3=O", "unit.spec": "µM", "endpoint.value": 9}
{"cpd.smiles": "O=C1C=CC(=O)c2c1ccc1c2c(=O)[nH]c2ccccc21", "unit.spec": "µM", "endpoint.value": 0.9}
{"cpd.smiles": "CCN(CC)c1ccc2c(c1)oc(=O)c1c3c(ccc12)C(=O)C=CC3=O", "unit.spec": "µM", "endpoint.value": 58}

Exercise: Which measured IC50 belongs to O=C1C=CC(=O)c2c1ccc1c2c(=O)oc2ccc(F)cc21 , tested on MCF7?
Key: 3

Exercise: Now this one: O=C1C=CC(=O)c2c1ccc1c2c(=O)oc2cc(Cl)ccc21
Key: 2.8

Exercise: Now this one: O=C1C=CC(=O)c2c1ccc1c2c(=O)[nH]c2c3ccccc3ccc12
Key: 30

Exercise: Now this one: O=C1C=CC(=O)c2c1ccc1c2c(=O)oc2ccc(Cl)cc21
Key: 13

Exercise: Now this one: O=C1C=CC(=O)c2c1ccc1c2c(=O)[nH]c2ccc(Cl)cc21
Key: 1.2

Exercise: Now this one: O=C1C=CC(=O)c2c1ccc1c2c(=O)oc2cc(O)ccc21
Key: 9

Exercise: Now this one: Cn1c(=O)c2c3c(ccc2c2ccccc21)C(=O)C=CC3=O
Key: 34

Exercise: Now this one: O=C1C=CC(=O)c2c1ccc1c2c(=O)[nH]c2cc(F)ccc21
Key: 27

Exercise: Now this one: O=C1C=CC(=O)c2c1ccc1c2c(=O)oc2ccccc21
Key: 16

Exercise: Now this one: O=C1C=CC(=O)c2c1ccc1c2c(=O)[nH]c2ccc(F)cc21
Key: 4

Exercise: Now this one: O=C1C=CC(=O)c2c1ccc1c2c(=O)oc2c3ccccc3ccc12
Key: 7

Exercise: Now this one: Cc1ccc2c(c1)oc(=O)c1c3c(ccc12)C(=O)C=CC3=O
Key: 82

Exercise: Now this one: O=C1C(SCCO)=C(SCCO)C(=O)c2ccccc21
Key: 0.96

Values from ChEMBL document CHEMBL4033647
